From: ChEMBL document CHEMBL5113395

Consider the following compounds; for each one, report its remaining at 24 h.
assay: Chemical stability of compound in PBS at pH 7.4 incubated for 24 hrs under UV 254 nm stress condition by HPLC/UV/DAD analysis; assay type: physicochemical; details: read-out: Stability
Write down the value, and be sure its unit follows.

remaining at 24 h recorded for this compound, "O=C(NO)c1ccc(CNC(=O)N2CCC(N3CC(c4ccccc4)(c4ccccc4)C3=O)CC2)cc1" , is 100%

remaining at 24 h recorded for this compound, O=C(NO)c1ccc(CNC(=O)N2CCC(N3C(=O)[C@H](c4ccccc4)[C@H]3c3ccccc3)CC2)cc1 (racemic) , is 100%

* * *

assay: Chemical stability of compound in PBS at pH 7.4 measured after 24 hrs by HPLC/UV/DAD analysis; format: physicochemical; conditions: read-out: Stability
Measured Endpoint: remaining at 24 h

remaining at 24 h recorded for this compound, O=C(NO)c1ccc(CNC(=O)N2CCC(N3C(=O)[C@H](c4ccccc4)[C@H]3c3ccccc3)CC2)cc1 (racemic) , is 73%

remaining at 24 h recorded for this compound, "O=C(NO)c1ccc(CNC(=O)N2CCC(N3CC(c4ccccc4)(c4ccccc4)C3=O)CC2)cc1" , is 75%
